// molecules with reported Ki on Fatty-acid amide hydrolase 1 (Homo sapiens, UniProt O00519), multi-publication
Sequence (O00519 whole entry): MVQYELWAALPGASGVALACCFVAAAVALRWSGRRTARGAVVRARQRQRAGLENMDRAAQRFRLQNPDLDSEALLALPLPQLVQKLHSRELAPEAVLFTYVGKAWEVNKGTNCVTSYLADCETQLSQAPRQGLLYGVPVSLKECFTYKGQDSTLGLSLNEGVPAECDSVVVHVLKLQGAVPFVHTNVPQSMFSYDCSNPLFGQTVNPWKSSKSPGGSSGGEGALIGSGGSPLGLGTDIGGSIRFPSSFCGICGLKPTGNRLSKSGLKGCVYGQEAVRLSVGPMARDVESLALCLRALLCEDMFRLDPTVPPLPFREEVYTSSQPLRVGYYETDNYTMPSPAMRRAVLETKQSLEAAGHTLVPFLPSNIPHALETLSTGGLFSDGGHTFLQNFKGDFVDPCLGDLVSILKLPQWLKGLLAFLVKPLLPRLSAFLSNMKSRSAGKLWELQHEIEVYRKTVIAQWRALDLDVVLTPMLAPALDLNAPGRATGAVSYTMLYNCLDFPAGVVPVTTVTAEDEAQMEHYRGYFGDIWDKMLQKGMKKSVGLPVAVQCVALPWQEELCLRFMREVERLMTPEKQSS

# value lookup — system Fatty-acid amide hydrolase 1 (Homo sapiens, UniProt O00519), readout Ki, item c1ccc(Oc2ccc(C3CC(Oc4cnc5cc[nH]c5c4)=NO3)cc2)cc1 (racemic)
≤ 100 nM

Recorded Ki for O=C(O)c1ccc(OC2=NOC(c3ccc(Oc4ccccc4)cc3)C2)cn1 (racemic) with Fatty-acid amide hydrolase 1 (Homo sapiens, UniProt O00519), please?
≤ 100 nM

What reported Ki corresponds to FC(F)(F)Oc1ccc(C2CC(Oc3ccc(-c4ncco4)nc3)=NO2)cc1 (racemic) on Fatty-acid amide hydrolase 1 (Homo sapiens, UniProt O00519)?
≤ 100 nM

For the record `Cc1c(CC(=O)N2CC=C(B(O)O)CC2)sc2ccccc12` , what value of Ki is listed for Fatty-acid amide hydrolase 1 (Homo sapiens, UniProt O00519)?
10 to 100 nM

Notebook: pull reported Ki for Fatty-acid amide hydrolase 1 (Homo sapiens, UniProt O00519), entry c1ccc(Oc2ccc(C3CC(n4cccn4)=NO3)cc2)cc1 (single isomer, unassigned)
≥ 1000 nM

Lab note: need Ki for `O=C(CCc1ccccc1)N1CCC2(CC1)CC(Oc1cncnc1)=NO2` on Fatty-acid amide hydrolase 1 (Homo sapiens, UniProt O00519), anyone have it?
100 to 1000 nM

Entry `O=C(c1ccc(Cl)cc1)N1CC=C(B(O)O)CC1` , system Fatty-acid amide hydrolase 1 (Homo sapiens, UniProt O00519): what Ki was measured?
10 to 100 nM

Test system Fatty-acid amide hydrolase 1 (Homo sapiens, UniProt O00519); read-out Ki; what value for `O=C(OCc1ccccc1)N1CC=C(B(O)O)CC1` ?
10 to 100 nM

Form field - read-out: Ki; system: Fatty-acid amide hydrolase 1 (Homo sapiens, UniProt O00519); submitted item: `C#Cc1ccc(CN2CCC3(CC2)CC(Oc2cccnc2)=NO3)cc1`
≤ 100 nM

Record lookup: for Fatty-acid amide hydrolase 1 (Homo sapiens, UniProt O00519), what Ki belongs to Cc1nnc(-c2ccc(OC3=NOC(C)(c4ccc(OC(F)(F)F)cc4)C3)cn2)o1 (racemic) ?
≤ 100 nM

What is its Ki for Fatty-acid amide hydrolase 1 (Homo sapiens, UniProt O00519)? Entry: CCNC(=O)c1ccc(OC2=NOC(C)(c3ccc(OC(F)(F)F)cc3)C2)cn1 (racemic)
≤ 100 nM

Enter reported Ki observed with Fatty-acid amide hydrolase 1 (Homo sapiens, UniProt O00519) for `O=C(OCc1ccccc1)N1CCC2(CC1)CC(N1CCCC1)=NO2`
≥ 1000 nM

Missing value: Ki, Fatty-acid amide hydrolase 1 (Homo sapiens, UniProt O00519), entry `O=C(NCc1ccccc1)N1CC=C(B(O)O)CC1` . Fill in?
10 to 100 nM

GET /values?readout=Ki&system=Fatty-acid amide hydrolase 1 (Homo sapiens, UniProt O00519)&item= `BrC1=NOC2(CCN(c3ccccc3)CC2)C1`
100 to 1000 nM

What value of Ki on Fatty-acid amide hydrolase 1 (Homo sapiens, UniProt O00519) does FC(F)(F)C1(c2ccc(Oc3ccccc3)cc2)CC(Br)=NO1 (racemic) have?
100 to 1000 nM

// lookup Ki | system=Fatty-acid amide hydrolase 1 (Homo sapiens, UniProt O00519) | key= O=C(O)c1ccc(OC2=NOC(c3ccc(Oc4ccccc4)cc3)C2)cc1 (racemic)
≤ 100 nM

API: value(readout=Ki, system=Fatty-acid amide hydrolase 1 (Homo sapiens, UniProt O00519)) for record Cn1cc(-c2ccc(OC3=NOC(C)(c4ccc(OC(F)(F)F)cc4)C3)cn2)cn1 (racemic)
≤ 100 nM

Query Ki on Fatty-acid amide hydrolase 1 (Homo sapiens, UniProt O00519) for Fc1cc([C@H]2CC(Oc3cncnc3)=NO2)ccc1OC(F)(F)F (racemic)
≤ 100 nM

Give Fatty-acid amide hydrolase 1 (Homo sapiens, UniProt O00519) Ki for Cn1nc(C(F)(F)F)cc1-c1ccc(OC2=NOC(c3ccc(OC(F)(F)F)cc3)C2)cn1 (racemic)
≥ 1000 nM

For the record CN(C)S(=O)(=O)c1ccc([C@H]2CC(Oc3ccc(S(C)(=O)=O)nc3)=NO2)cc1 (racemic) , what value of Ki is listed for Fatty-acid amide hydrolase 1 (Homo sapiens, UniProt O00519)?
≤ 100 nM

What is its Ki for Fatty-acid amide hydrolase 1 (Homo sapiens, UniProt O00519)? Entry: `O=C(c1cnc2ccccc2c1)N1CCC(B(O)O)CC1`
100 to 1000 nM

Which measured Ki belongs to FC(F)(F)c1ccc(C2CC(Oc3cncnc3)=NO2)cc1 (racemic) , tested on Fatty-acid amide hydrolase 1 (Homo sapiens, UniProt O00519)?
100 to 1000 nM

So what Ki did FC(F)(F)Oc1ccc(C2CC(Oc3ccc(-c4ccn[nH]4)nc3)=NO2)cc1 (racemic) get with Fatty-acid amide hydrolase 1 (Homo sapiens, UniProt O00519)?
≤ 100 nM

Under Fatty-acid amide hydrolase 1 (Homo sapiens, UniProt O00519): Ki value of N#Cc1cccc(OC2=NOC(c3ccc(Oc4ccccc4)cc3)C2)c1 (racemic) ?
100 to 1000 nM

Find the measured Ki: item O[C@H](CNC1=NOC(c2ccc(Oc3ccccc3)cc2)C1)c1ccccc1 (mixture of isomers) , target or system Fatty-acid amide hydrolase 1 (Homo sapiens, UniProt O00519).
≥ 1000 nM

Please tell me: Ki of FC(F)(F)Oc1ccc(C2CC(Oc3ccc(-c4nnn[nH]4)cc3)=NO2)cc1 (racemic) , system Fatty-acid amide hydrolase 1 (Homo sapiens, UniProt O00519)?
100 to 1000 nM

// fetch Fatty-acid amide hydrolase 1 (Homo sapiens, UniProt O00519) Ki for c1ccc(Oc2ccc(C3CC(Oc4cccnc4)=NO3)cc2)cc1 (single isomer, unassigned)
≤ 100 nM

Query for Fatty-acid amide hydrolase 1 (Homo sapiens, UniProt O00519): what Ki does the record show for `BrC1=NO[C@H](c2ccncc2)C1` ?
≥ 1000 nM

Give the reported Ki for FC(F)(F)Oc1ccc(C2CC(Oc3ccc(-c4ccc[nH]4)nc3)=NO2)cc1 (racemic) (system: Fatty-acid amide hydrolase 1 (Homo sapiens, UniProt O00519)).
≤ 100 nM

Provide value of Ki for this record tested with Fatty-acid amide hydrolase 1 (Homo sapiens, UniProt O00519): `O=C(Oc1ccccc1)N1CCC2(CC1)CC(Br)=NO2`
≤ 100 nM

# value lookup — system Fatty-acid amide hydrolase 1 (Homo sapiens, UniProt O00519), readout Ki, item CS(=O)(=O)c1ccc(OC2=NOC(c3ccc(Oc4ccccc4)cc3)C2)cc1 (single isomer, unassigned)
≤ 100 nM

Enter reported Ki observed with Fatty-acid amide hydrolase 1 (Homo sapiens, UniProt O00519) for BrC1=NO[C@H](Cc2ccccc2)C1 (single isomer, unassigned)
≥ 1000 nM

Query for Fatty-acid amide hydrolase 1 (Homo sapiens, UniProt O00519): what Ki does the record show for O=C(O)c1ccc(-c2ccc(OC3=NOC(c4ccc(OC(F)(F)F)cc4)C3)cn2)o1 (racemic) ?
≥ 1000 nM

Find Ki (Fatty-acid amide hydrolase 1 (Homo sapiens, UniProt O00519)) for the entry FC(F)(F)Oc1ccc(C2CC(Oc3ccc(-c4cn[nH]c4)nc3)=NO2)cc1 (racemic)
≥ 1000 nM

Provide value of Ki for this record tested with Fatty-acid amide hydrolase 1 (Homo sapiens, UniProt O00519): CC1(c2ccc(OC(F)(F)F)cc2)CC(Oc2cccc(-c3nnco3)c2)=NO1 (racemic)
≤ 100 nM

Item: BrC1=NOC(CCc2ccccc2)C1 (single isomer, unassigned) Test system: Fatty-acid amide hydrolase 1 (Homo sapiens, UniProt O00519) Read-out: Ki Value: ?
100 to 1000 nM

---

For reference, the following Ki results for Fatty-acid amide hydrolase 1 (Homo sapiens) were taken from various sources.

If you can, please state the reported Ki value of [O-][S+](C1=NOC(c2ccc(OC(F)(F)F)cc2)C1)c1ccccc1 (racemic) .
≥ 1000 nM

Sample Cc1ccc(OC2=NOC(c3ccc(Oc4ccccc4)cc3)C2)cc1F (single isomer, unassigned) — what was its Ki?
≥ 1000 nM

What measured Ki goes with Fc1cc(OC2=NOC(c3ccc(OC(F)(F)F)cc3)C2)cc(-c2nnco2)c1 (racemic) ?
≤ 100 nM

Please report the recorded Ki for `BrC1=NO[C@@H](c2csc(-c3ccccc3)n2)C1` .
≥ 1000 nM

Name the recorded Ki for C[C@@H]1C(Oc2cccnc2)=NO[C@H]1c1ccc(Oc2ccccc2)cc1 (racemic) .
≥ 1000 nM

What value of Ki has been reported for the following compound? c1ccc(C2CC(Oc3cncnc3)=NO2)cc1 (racemic)
100 to 1000 nM

Look at this compound and give its reported Ki. Fc1cc([C@H]2CC(Br)=NO2)ccc1OC(F)(F)F (racemic)
≤ 100 nM

# query: Ki of entry CN(C)C(=O)c1ccc(OC2=NOC(c3ccc(Oc4ccccc4)cc3)C2)cn1 (racemic)
≤ 100 nM

Need Ki of O=C(O)CCc1ccc(OC2=NOC(c3ccc(Oc4ccccc4)cc3)C2)cn1 (racemic) , thanks.
≤ 100 nM

# query: Ki of entry CSc1ncc(OC2=NOC(c3ccc(OC(F)(F)F)cc3)C2)cn1 (racemic)
100 to 1000 nM

// query Ki value for entry `BrC1=NO[C@]2(CC[C@@H](c3ccccc3)CC2)C1`
≤ 100 nM

Give its Ki value. Item: `CC(C)(C)OC(=O)N1CCC2(CC1)CC(Cl)=NO2`
≤ 100 nM

What value of Ki has been recorded for this entry: O=C(NCc1ccccc1)c1ccc([C@H]2CC(Br)=NO2)cc1 (racemic)
100 to 1000 nM

Return reported Ki; argument: FC(F)(F)Oc1ccc(C2CC(Oc3ccc(-c4nccs4)nc3)=NO2)cc1 (racemic)
≤ 100 nM

State the recorded Ki for this entry: `O=C(Nc1ccccc1)N1CCC2(CC1)CC(Oc1cncnc1)=NO2`
≥ 1000 nM

Could you tell me which Ki is on file for `Cc1c(C(=O)N2CC=C(B(O)O)CC2)sc2ccccc12` ?
10 to 100 nM

Consider the compound shown here: CN(C)S(=O)(=O)c1cccc(OC2=NOC(C)(c3ccc(OC(F)(F)F)cc3)C2)c1 (racemic) What is its recorded Ki?
≥ 1000 nM

Param item = Cn1cc(-c2ccc(OC3=NOC(c4ccc(OC(F)(F)F)cc4)C3)cn2)cn1 (racemic) ; retrieve measured Ki.
≤ 100 nM

Which measured Ki value corresponds to COC(=O)CCc1ccc(OC2=NOC(c3ccc(Oc4ccccc4)cc3)C2)cn1 (racemic) ?
≤ 100 nM

Query (compound): CN(C)C(=O)c1ccc(C2CC(Oc3ccc(S(C)(=O)=O)nc3)=NO2)cc1 (racemic) ; field requested: Ki
100 to 1000 nM

Look at this compound and give its reported Ki. Cc1nnc(-c2cccc(OC3=NOC(c4ccc(Oc5ccccc5)cc4)C3)c2)o1 (racemic)
≤ 100 nM

Requested read-out: Ki. Entry: `COC(=O)c1cccc(-c2cnc(C(=O)CCc3ccc(-c4ccccc4)cc3)o2)n1`
1.2 nM

Entry Cc1nnc(-c2ccc(OC3=NOC(c4ccc(OC(F)(F)F)cc4)C3)cn2)o1 (racemic) has what Ki?
≤ 100 nM

GET /values?readout=Ki&item= CC1(c2ccc(OC(F)(F)F)cc2)CC(Oc2cccnc2)=NO1 (racemic)
100 to 1000 nM

What value of Ki has been reported for the following compound? CN(C1=NOC(c2ccc(OC(F)(F)F)cc2)C1)c1ccc(C(=O)O)cc1 (racemic)
≥ 1000 nM

Quick one: Ki of FC(F)(F)Oc1ccc(C2CC(Oc3ccc(-c4nnn[nH]4)nc3)=NO2)cc1 (racemic) ?
≤ 100 nM

For the compound N#Cc1ccc(OC2=NOC(c3ccc(Oc4ccccc4)cc3)C2)cc1 (single isomer, unassigned) , what Ki is on record?
≤ 100 nM

What measured Ki goes with CN(C)C(=O)c1ccc([C@H]2CC(Br)=NO2)cc1 (racemic) ?
≤ 100 nM

Param item = BrC1=NOC(c2ccc(Oc3cccnc3)cc2)C1 (single isomer, unassigned) ; retrieve measured Ki.
≤ 100 nM

So what's the measured Ki for this one? BrC1=NOC(c2ccccc2)C1 (single isomer, unassigned)
100 to 1000 nM

# Ki lookup, item `C#Cc1ccc(CN2CCC3(CC2)CC(Br)=NO3)cc1`
≤ 100 nM

Suppose we examine the compound Cc1cc(-c2ccc(OC3=NOC(c4ccc(OC(F)(F)F)cc4)C3)cn2)n(C)n1 (racemic) ; what Ki value has been reported?
≤ 100 nM

Give its Ki value. Item: O=C(O)c1cccc(OC2=NOC(c3ccc(Oc4ccccc4)cc3)C2)c1 (racemic)
100 to 1000 nM

Given CNC(=O)c1cncc(OC2=NOC(c3ccc(OC(F)(F)F)cc3)C2)c1 (racemic) , state its recorded Ki.
≤ 100 nM

Suppose we examine the compound N[S@SP3](=O)(=O)c1cccc(OC2=NOC(c3ccc(Oc4ccccc4)cc3)C2)c1 (racemic) ; what Ki value has been reported?
≥ 1000 nM
